meta.source: patent US20220395500A1

- Test system: NF-κB-SEAP reporter in THP1-Dual cells
- test.method.notes: THP1-Dual NF-κB-SEAP reporter counterscreen
- Type: cell-based, human
- particulars: Homo sapiens, THP1-Dual, Human Reporter Cell Line, 8-point dose response; read-out: THP1 NFkB EC50
Please provide measured pEC50 for the entries that follow.
pEC50 here is simply -log10 of the concentration when that concentration is written in mol/L.

Quick check: pEC50 of Cc1cc(NC(=O)c2sc3cc(Cl)ccc3c2Cl)ccc1NC(=O)c1ccco1 ?
4.81

Entry under review: O=C(Nc1ccc(N2CCN(C(=O)c3cccs3)CC2)cc1)c1sc2cc(Cl)ccc2c1Cl . Reported pEC50?
5.56

Please give the measured pEC50 for this compound: O=C(Nc1ccc(N2CCN(C(=O)c3cccs3)CC2)cc1)c1ccc2c(c1)OCCO2
5.52

So what's the measured pEC50 for this one? CCOc1ccc(C(=O)Nc2ccc(N3CCN(C(=O)c4cccs4)CC3)cc2)cc1Br
5.98

Look at this compound and give its reported pEC50. COc1ccc(C(=O)Nc2ccc(OCc3ccccc3)cc2)cc1[N+](=O)[O-]
6.04

Fill in the blank: the reported pEC50 of O=C(Nc1ccc(N2CCN(C(=O)c3cccs3)CC2)cc1)c1ccc(-c2ccccc2)cc1 is ____.
5.83

# query: pEC50 of entry O=C(Nc1ccc(N2CCN(C(=O)c3cccs3)CC2)cc1)c1ccc(-c2ccncc2)cc1
5.46

# get_value(readout='pEC50', item= O=C(Nc1ccc(N2CCN(C(=O)c3cccs3)CC2)cc1)c1ccc(OCc2ccccc2)cn1 )
5.64

Recorded pEC50 for COc1cccc(COc2ccc(C(=O)Nc3ccc(N4CCN(C(=O)c5cccs5)CC4)cc3)cc2)c1 , please?
5.38

I'd like to know its pEC50. The compound in question is CCOc1cccc(COc2ccc(C(=O)Nc3ccc(N4CCN(C(=O)c5cccs5)CC4)cc3)cn2)c1
5.18

Tell me the measured pEC50 of O=C(Nc1ccc(N2CCN(C(=O)c3cccs3)CC2)cc1)c1ccc(-c2cc3ccccc3oc2=O)cc1 , please.
5.51

Value lookup for pEC50; key = O=C(Nc1ccc(N2CCN(C(=O)c3cccs3)CC2)cc1)c1ccc(-c2ccccc2)nc1
4.90

What measured pEC50 goes with O=C(Nc1ccc(N2CCN(C(=O)c3cccs3)CC2)cc1)c1ccc(OCc2cccc(Cl)c2)cc1 ?
5.79
